Taken from patent US20250212875A1.

- Test system: Arabidopsis thaliana
- TEST METHOD NOTES: HTPS post-emergence on miniature dicot model plants
- Type: in vivo
- TEST CONDITIONS: green area (RGB), maximal concentration 1.5 kg/ha, read-out: Max inhibition (%)
- Description: Arabidopsis thaliana seeds were sown in 96 well plates filled with irrigated Sweet sand (10%>clay) that is washed from salts and minerals using tap water. 5-10 seeds were sown in the center of each well. 7-8 days post sowing, at 2 true leaves stage, thinning out was performed to ensure that compound application is done on a single plant per well. […] The compounds were applied as a gradient of concentrations as listed above, from which the ED50 was calculated.
PROPERTY NAME: inhibition at up to 1500 g/ha (%)
Write the number in % without appending the unit.

CC(N)CCC/C=C/C(=O)O (stereo not shown) = 100

### Prompt Fill in: inhibition at up to 1500 g/ha of CC(O)C(N)/C=C/CCC(=O)O (stereo not shown) is ___
### Response 100

### Prompt // query inhibition at up to 1500 g/ha value for entry NC1CCCC(/C=C/CC(=O)O)C1 (stereo not shown)
### Response 100

---

- Tested on: Alopecurus myosuroides
- TEST METHOD NOTES: LTP pre-emergence greenhouse screen
- Format: in vivo
PROPERTY NAME: IG: inhibited growth

Recorded IG: inhibited growth, per entry:
NC(C/C=C/CC(=O)O)C1CC1 (centres unmarked) = IG (60)
NC1CCCC(/C=C/CC(=O)O)C1 (centres unmarked) = IG (80)
NC1(C/C=C/CC(=O)O)CCC1 = IG (60)
NC1CCCC(C#CCC(=O)O)C1 (centres unmarked) = IG (80)

### Prompt What measured IG: inhibited growth goes with CC(O)C(N)C/C=C/CC(=O)O (centres unmarked) ?
### Response IG (80)

---

Here, each record is paired with measured inhibition at up to 1500 g/ha data.
- System: Arabidopsis thaliana
- TEST METHOD NOTES: HTPS post-emergence on miniature dicot model plants
- Format: in vivo
- TEST CONDITIONS: green area (RGB), maximal concentration 1.5 kg/ha, read-out: Max inhibition (%)
All answers are understood in %, so give the number only.

Known inhibition at up to 1500 g/ha results, listed for orientation:
NC1CCC/C(=C\CCC(=O)O)C1 (stereo not shown) = 100
NC1(C/C=C/CC(=O)O)CCC1 = 100
NC1CCCC(C#CCC(=O)O)C1 (stereo not shown) = 100

### Prompt Bench note: what inhibition at up to 1500 g/ha did CC(C)C(N)C/C=C/CC(=O)O (stereo not shown) show?
### Response 100

---

- Test system: Arabidopsis thaliana
- TEST METHOD NOTES: HTPS post-emergence on miniature dicot model plants
- Format: in vivo
- TEST CONDITIONS: green area (RGB), maximal concentration 1.5 kg/ha, read-out: Max inhibition (%)
Recorded inhibition at up to 1500 g/ha by entry
Please give a number only; it is taken to be in %.

Study these solved cases before continuing.
CC(N)CC/C=C/CC(=O)O (stereo not drawn) = 100
NC(C/C=C/CC(=O)O)C1CC1 (stereo not drawn) = 100
CC(O)C(N)C/C=C/CC(=O)O (stereo not drawn) = 100
C[C@@H](O)[C@@H](N)/C=C/C=C/C(=O)O = 100
CCCC(N)C/C=C/CC(=O)O (stereo not drawn) = 75

For the next question, use this compound.
### Prompt Which inhibition at up to 1500 g/ha reading was recorded for the compound NC1(C/C=C/CC(=O)O)CC1 ?
### Response 87.5
